Origin of measurements: ChEMBL document CHEMBL4261654

- PROTOCOL SUMMARY: Selectivity index, ratio of IC50 for HSF cells to IC50 for human MCF7 cells
- Assay type: toxicity
- RUN PARAMETERS: HSF cells versus MCF7 cells, read-out: Ratio IC50
compounds and their reported selectivity ratio
READOUT KIND: selectivity ratio

[
  {
    "COMPOUND": "CCC1OCc2c(/C=C/C(C)=O)cnc(C)c2O1 (configuration not stated)",
    "VALUE REPORTED": 4.8
  },
  {
    "COMPOUND": "CC(=O)/C=C/c1cnc(C)c2c1COC1(CCCCC1)O2",
    "VALUE REPORTED": 14.2
  }
]

----------
- Tested on: A498
- PROTOCOL SUMMARY: Antiproliferative activity against human A498 cells after 72 hrs by MTT assay
- Type: functional, cell-based
- RUN PARAMETERS: A498, 72 h
pIC50: −log10 of the molar value.

[
  {
    "MOLECULE": "COc1cccc2c1C(=O)c1c(O)c3c(c(O)c1C2=O)C[C@@](O)(C(=O)CO)C[C@@H]3O[C@H]1C[C@H](N)[C@H](O)[C@H](C)O1 [DOXORUBICIN]",
    "pIC50": 5.21
  },
  {
    "MOLECULE": "CCC1OCc2c(/C=C/C(C)=O)cnc(C)c2O1 (centres undefined)",
    "pIC50": 4.77
  },
  {
    "MOLECULE": "CC(=O)/C=C/c1cnc(C)c2c1COC1(CCCCC1)O2",
    "pIC50": 5.19
  },
  {
    "MOLECULE": "COc1cc(/C=C/C(C)=O)ccc1O [DEHYDROZINGERONE]",
    "pIC50": 3.90
  }
]

----------
compounds and their reported pIC50
- Test system: PC-3
- PROTOCOL SUMMARY: Antiproliferative activity against human PC3 cells after 72 hrs by MTT assay
- Assay type: functional, cell-based
- RUN PARAMETERS: PC-3, 72 h
pIC50: −log10 of the molar value.
READOUT KIND: pIC50

[
  {
    "COMPOUND": "COc1cccc2c1C(=O)c1c(O)c3c(c(O)c1C2=O)C[C@@](O)(C(=O)CO)C[C@@H]3O[C@H]1C[C@H](N)[C@H](O)[C@H](C)O1",
    "TARGET UNDER TEST": "PC-3",
    "VALUE REPORTED": 6.64
  },
  {
    "COMPOUND": "CCC1OCc2c(/C=C/C(C)=O)cnc(C)c2O1 (centres undefined)",
    "TARGET UNDER TEST": "PC-3",
    "VALUE REPORTED": 5.06
  },
  {
    "COMPOUND": "COc1cc(/C=C/C(C)=O)ccc1O [DEHYDROZINGERONE]",
    "TARGET UNDER TEST": "PC-3",
    "VALUE REPORTED": 4.17
  },
  {
    "COMPOUND": "CC(=O)/C=C/c1cnc(C)c2c1COC1(CCCCC1)O2",
    "TARGET UNDER TEST": "PC-3",
    "VALUE REPORTED": 5.26
  }
]

----------
- Test system: HCT-116
- PROTOCOL SUMMARY: Antiproliferative activity against human HCT116 cells after 72 hrs by MTT assay
- Type: functional, cell-based
- RUN PARAMETERS: HCT-116, 72 h
pIC50: −log10 of the molar value.
READOUT KIND: pIC50

[
  {
    "COMPOUND": "COc1cc(/C=C/C(C)=O)ccc1O [DEHYDROZINGERONE]",
    "READOUT KIND": "pIC50",
    "VALUE REPORTED": 4.15
  },
  {
    "COMPOUND": "COc1cccc2c1C(=O)c1c(O)c3c(c(O)c1C2=O)C[C@@](O)(C(=O)CO)C[C@@H]3O[C@H]1C[C@H](N)[C@H](O)[C@H](C)O1",
    "READOUT KIND": "pIC50",
    "VALUE REPORTED": 6.40
  },
  {
    "COMPOUND": "CC(=O)/C=C/c1cnc(C)c2c1COC1(CCCCC1)O2",
    "READOUT KIND": "pIC50",
    "VALUE REPORTED": 5.55
  },
  {
    "COMPOUND": "CCC1OCc2c(/C=C/C(C)=O)cnc(C)c2O1 (centres undefined)",
    "READOUT KIND": "pIC50",
    "VALUE REPORTED": 5.39
  }
]

----------
- Tested on: NCI-H322M
- PROTOCOL SUMMARY: Antiproliferative activity against human NCI-H322M cells after 72 hrs by MTT assay
- Format: functional, cell-based
pIC50: −log10 of the molar value.

[
  {
    "MOLECULE": "COc1cc(/C=C/C(C)=O)ccc1O [DEHYDROZINGERONE]",
    "pIC50": 4.02
  },
  {
    "MOLECULE": "COc1cccc2c1C(=O)c1c(O)c3c(c(O)c1C2=O)C[C@@](O)(C(=O)CO)C[C@@H]3O[C@H]1C[C@H](N)[C@H](O)[C@H](C)O1",
    "pIC50": 4.54
  },
  {
    "MOLECULE": "CC(=O)/C=C/c1cnc(C)c2c1COC1(CCCCC1)O2",
    "pIC50": 5.34
  },
  {
    "MOLECULE": "CCC1OCc2c(/C=C/C(C)=O)cnc(C)c2O1 (centres undefined)",
    "pIC50": 4.97
  }
]

----------
- System: OVCAR-4
- PROTOCOL SUMMARY: Antiproliferative activity against human OVCAR4 cells after 72 hrs by MTT assay
- Format: functional, cell-based
- RUN PARAMETERS: OVCAR-4, 72 h
pIC50: −log10 of the molar value.

[
  {
    "COMPOUND": "CCC1OCc2c(/C=C/C(C)=O)cnc(C)c2O1 (centres undefined)",
    "pIC50": 4.63
  },
  {
    "COMPOUND": "CC(=O)/C=C/c1cnc(C)c2c1COC1(CCCCC1)O2",
    "pIC50": 4.72
  },
  {
    "COMPOUND": "COc1cc(/C=C/C(C)=O)ccc1O [DEHYDROZINGERONE]",
    "pIC50": 3.86
  },
  {
    "COMPOUND": "COc1cccc2c1C(=O)c1c(O)c3c(c(O)c1C2=O)C[C@@](O)(C(=O)CO)C[C@@H]3O[C@H]1C[C@H](N)[C@H](O)[C@H](C)O1",
    "pIC50": 6.82
  }
]
